Target: T1, hPDGFRb.mmh (human, UniProt P09619 33-531)
T1 construct: Soluble monomeric construct; also called soluble human PDGFR-beta.mmh
T1 sequence (P09619 other isoform, or with tags, fused parts or gaps): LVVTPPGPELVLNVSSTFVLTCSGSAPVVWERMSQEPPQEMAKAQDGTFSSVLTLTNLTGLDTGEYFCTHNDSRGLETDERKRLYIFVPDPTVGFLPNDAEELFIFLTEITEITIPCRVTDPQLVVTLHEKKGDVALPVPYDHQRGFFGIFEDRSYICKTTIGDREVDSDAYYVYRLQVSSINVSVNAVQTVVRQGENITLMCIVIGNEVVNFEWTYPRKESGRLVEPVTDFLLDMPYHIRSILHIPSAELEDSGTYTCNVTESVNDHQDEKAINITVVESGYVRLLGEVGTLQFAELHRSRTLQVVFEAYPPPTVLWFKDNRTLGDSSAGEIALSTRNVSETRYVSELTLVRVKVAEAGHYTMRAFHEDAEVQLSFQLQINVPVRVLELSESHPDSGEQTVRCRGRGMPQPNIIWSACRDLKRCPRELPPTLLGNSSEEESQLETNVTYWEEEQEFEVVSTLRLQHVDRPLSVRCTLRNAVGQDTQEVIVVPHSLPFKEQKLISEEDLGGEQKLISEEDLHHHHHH
Assay: SPR, mAb captured, 25 C
Experimental: Antibodies, expressed as either mouse Fc (prefix H1M; H2M) or human Fc (prefix H4H), were captured on their respective anti-Fc sensor surfaces (Mab capture format). […] Kinetic association (kₐ) and dissociation (kd) rate constants were determined by processing and fitting the data to a 1:1 binding model using Scrubber 2.0 curve fitting software.
Known t1/2 of a selection of binders
Provide the reading as a plain figure in min.

| binder | t1/2 [min] |
| --- | --- |
| H4H3103S (antibody, human IgG4, V domains shown, human IgG4 Fc (H4H prefix)) VH: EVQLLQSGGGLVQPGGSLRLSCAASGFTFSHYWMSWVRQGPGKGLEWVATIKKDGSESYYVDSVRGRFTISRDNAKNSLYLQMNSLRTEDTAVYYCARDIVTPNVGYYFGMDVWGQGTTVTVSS VL: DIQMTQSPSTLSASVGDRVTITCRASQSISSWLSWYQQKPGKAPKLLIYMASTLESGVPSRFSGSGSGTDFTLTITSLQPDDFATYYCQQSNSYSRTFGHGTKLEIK | 11 |

Turning now to a further binder:
// sample H4H3094P (antibody, human IgG4, V domains shown, also called H4H3394P) VH: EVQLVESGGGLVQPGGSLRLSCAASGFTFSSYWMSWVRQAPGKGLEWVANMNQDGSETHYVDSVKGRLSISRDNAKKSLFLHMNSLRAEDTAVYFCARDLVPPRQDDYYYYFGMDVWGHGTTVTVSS VL: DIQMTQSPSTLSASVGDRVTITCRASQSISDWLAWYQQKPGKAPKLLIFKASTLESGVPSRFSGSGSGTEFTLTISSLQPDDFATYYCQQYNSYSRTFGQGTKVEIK , its t1/2 was 45

Taken from patent US20170210813A1.
